Numbers sourced from patent US7378425B2.

# ASSAYED_TARGET: acetylcholinesterase (rat brain homogenate) (Rattus norvegicus, UniProt P37136)
# Construct: Using a rat brain homogenate as a source of acetylcholinesterase; from tissue; host or cells: rat brain homogenate
# Sequence (P37136 32-614): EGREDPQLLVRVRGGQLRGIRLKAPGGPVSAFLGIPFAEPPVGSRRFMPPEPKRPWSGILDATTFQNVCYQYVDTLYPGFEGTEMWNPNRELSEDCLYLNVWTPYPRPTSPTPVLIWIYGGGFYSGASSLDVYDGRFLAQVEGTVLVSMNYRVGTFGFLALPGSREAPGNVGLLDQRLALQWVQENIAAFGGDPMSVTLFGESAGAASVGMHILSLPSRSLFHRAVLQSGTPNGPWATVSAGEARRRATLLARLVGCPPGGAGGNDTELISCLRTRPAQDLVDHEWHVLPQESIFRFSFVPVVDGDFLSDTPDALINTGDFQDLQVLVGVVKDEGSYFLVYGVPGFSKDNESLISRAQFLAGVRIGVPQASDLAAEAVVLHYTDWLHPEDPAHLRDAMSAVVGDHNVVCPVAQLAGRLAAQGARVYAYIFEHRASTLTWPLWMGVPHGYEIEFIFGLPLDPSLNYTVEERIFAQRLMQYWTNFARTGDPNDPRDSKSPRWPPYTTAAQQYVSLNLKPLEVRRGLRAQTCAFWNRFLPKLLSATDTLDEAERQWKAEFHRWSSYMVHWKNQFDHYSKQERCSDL
# ASSAY_SUMMARY: biochemical
Where a name gives a salt, the structure may show the parent alone.
MEASUREMENT_TYPE: IC50 (nM)

{"columns": ["COMPOUND", "MEASURED_RESULT"],
 "data": [
  ["COc1cc2c(cc1OC)C(=O)C(CC1=CCN(Cc3ccccc3)CC1)C2 (stereo not shown) [Example 1, hydrochloride]", 4.2]
]}

###

# ASSAYED_TARGET: sigma receptor (guinea pig brain crude membrane fraction)
# ASSAY_SUMMARY: Sigma receptor binding assay (3H-DTG)
# CONDITION_PARAMETERS: inhibition of 3H-DTG binding to guinea pig brain crude membrane fraction, 25° C., 1 hour
pIC50: −log10 of the molar value. Counter-ions that a name gives are not always drawn.
# pIC50 per record follows

{"columns": ["COMPOUND", "ASSAYED_TARGET", "pIC50"],
 "data": [
  ["CCOc1cc2c(cc1OCC)C(=O)C(F)(CC1=CCN(Cc3ccccc3)CC1)C2 (centres unmarked) [Example 3, hydrochloride]", "sigma receptor (guinea pig brain crude membrane fraction)", 8.33],
  ["CCOc1cc2c(cc1OCC)C(=O)C(CC1=CCN(Cc3ccccc3)CC1)C2 (centres unmarked) [Example 2, hydrochloride]", "sigma receptor (guinea pig brain crude membrane fraction)", 8.30]
]}
